assay: Human pharmacokinetics, dose-ranging study; type: in vivo; conditions: human, plasma, po, 300 mg, oral capsule; 300 mg, 5 per week; Day 15; fasted; read-out: AUC0-24
ENDPOINT_NAME: AUC(0-t)
Kindly write the number and append the unit.

Record COc1cc(OC)cc(N2CCN(C(=O)Nc3nc4cc(F)ccc4nc3OC)CC2)c1 [RX-5902] , field AUC(0-t): 3840 ng·h/mL

====

assay: Human pharmacokinetics, dose-ranging study; format: in vivo; conditions: human, plasma, po, 200 mg, oral capsule; 200 mg, 5 per week; Day 1; fasted; read-out: AUC0-24
ENDPOINT_NAME: AUC(0-t) (ng·h/mL)
// note: answer is a bare numeric in ng·h/mL

Record COc1cc(OC)cc(N2CCN(C(=O)Nc3nc4cc(F)ccc4nc3OC)CC2)c1 , field AUC(0-t): 2750

====

assay: Human pharmacokinetics, dose-ranging study; type: in vivo; details: human, plasma, po, 300 mg, oral capsule; 300 mg, 1 per week; Day 1; fasted; read-out: T1/2 (converted)
ENDPOINT_NAME: half-life (h)
// note: answer is a bare numeric in h

Record COc1cc(OC)cc(N2CCN(C(=O)Nc3nc4cc(F)ccc4nc3OC)CC2)c1 , field half-life: 14.6

====

experiment: Human pharmacokinetics, dose-ranging study; type: in vivo; settings: human, plasma, po, 775 mg, oral capsule; 775 mg, 1 per week; Day 1; fasted; read-out: AUC0-24
ENDPOINT_NAME: AUC(0-t)
Kindly write the number and append the unit.

Record COc1cc(OC)cc(N2CCN(C(=O)Nc3nc4cc(F)ccc4nc3OC)CC2)c1 , field AUC(0-t): 3540 ng·h/mL

====

experiment: Human pharmacokinetics, dose-ranging study; type: in vivo; conditions: human, plasma, po, 250 mg, oral capsule; 250 mg, 3 per week; Day 1; fasted; read-out: Cmax
ENDPOINT_NAME: Cmax (ng/mL)
// note: answer is a bare numeric in ng/mL

Record COc1cc(OC)cc(N2CCN(C(=O)Nc3nc4cc(F)ccc4nc3OC)CC2)c1 , field Cmax: 394

====

assay: Human pharmacokinetics, dose-ranging study; type: in vivo; settings: human, plasma, po, 150 mg, oral capsule; 150 mg, 1 per week; Day 1; fasted; read-out: T1/2 (converted)
ENDPOINT_NAME: half-life
Kindly write the number and append the unit.

Record COc1cc(OC)cc(N2CCN(C(=O)Nc3nc4cc(F)ccc4nc3OC)CC2)c1 , field half-life: 11.5 h

====

test: Human pharmacokinetics, dose-ranging study; format: in vivo; details: human, plasma, po, 575 mg, oral capsule; 575 mg, 1 per week; Day 1; fasted; read-out: Cmax
ENDPOINT_NAME: Cmax (ng/mL)
// note: answer is a bare numeric in ng/mL

Record COc1cc(OC)cc(N2CCN(C(=O)Nc3nc4cc(F)ccc4nc3OC)CC2)c1 , field Cmax: 707

====

assay: Human pharmacokinetics, dose-ranging study; assay type: in vivo; settings: human, plasma, po, 200 mg, oral capsule; 200 mg, 5 per week; Day 15; fasted; read-out: Cmax
ENDPOINT_NAME: Cmax (ng/mL)
// note: answer is a bare numeric in ng/mL

Record COc1cc(OC)cc(N2CCN(C(=O)Nc3nc4cc(F)ccc4nc3OC)CC2)c1 , field Cmax: 440

====

assay: Solubility assessment in solvents; assay type: physicochemical; settings: DMSO, 50 °C, organic solvent or mixture, thermodynamic from solid; read-out: Solubility at 50° C.
ENDPOINT_NAME: solubility at 10 min

Record COc1cc(OC)cc(N2CCN(C(=O)Nc3nc4cc(F)ccc4nc3OC)CC2)c1 , field solubility at 10 min: ≥ 100 mg/mL

====

experiment: Human pharmacokinetics, dose-ranging study; format: in vivo; details: human, plasma, po, 100 mg, oral capsule; 100 mg, 1 per week; Day 1; fasted; read-out: AUC0-48
ENDPOINT_NAME: AUC(0-t) (ng·h/mL)
// note: answer is a bare numeric in ng·h/mL

Record COc1cc(OC)cc(N2CCN(C(=O)Nc3nc4cc(F)ccc4nc3OC)CC2)c1 , field AUC(0-t): 2340

====

assay: Solubility assessment in solvents; format: physicochemical; settings: isopropanol-10% water, 50 °C, organic solvent or mixture, thermodynamic from solid; read-out: Solubility at 50° C.
ENDPOINT_NAME: solubility at 10 min

Record COc1cc(OC)cc(N2CCN(C(=O)Nc3nc4cc(F)ccc4nc3OC)CC2)c1 , field solubility at 10 min: ≥ 2500 µg/mL

====

assay: Human pharmacokinetics, dose-ranging study; type: in vivo; conditions: human, plasma, po, 300 mg, oral capsule; 300 mg, 1 per week; Day 1; fasted; read-out: AUC0-48
ENDPOINT_NAME: AUC(0-t) (ng·h/mL)
// note: answer is a bare numeric in ng·h/mL

Record COc1cc(OC)cc(N2CCN(C(=O)Nc3nc4cc(F)ccc4nc3OC)CC2)c1 , field AUC(0-t): 6140

====

experiment: Human pharmacokinetics, dose-ranging study; type: in vivo; conditions: human, plasma, po, oral capsules, all subjects; read-out: Apparent terminal T1/2, mean value (converted)
ENDPOINT_NAME: half-life (h)
// note: answer is a bare numeric in h

Record COc1cc(OC)cc(N2CCN(C(=O)Nc3nc4cc(F)ccc4nc3OC)CC2)c1 , field half-life: 13

====

assay: Human pharmacokinetics, dose-ranging study; format: in vivo; settings: human, plasma, po, 150 mg, oral capsule; 150 mg, 1 per week; Day 1; fasted; read-out: AUC0-48
ENDPOINT_NAME: AUC(0-t) (ng·h/mL)
// note: answer is a bare numeric in ng·h/mL

Record COc1cc(OC)cc(N2CCN(C(=O)Nc3nc4cc(F)ccc4nc3OC)CC2)c1 [RX-5902] , field AUC(0-t): 3280

====

Assay: Human pharmacokinetics, dose-ranging study
Assay type: in vivo
Settings: human, plasma, po, 300 mg, oral capsule; 300 mg, 7 per week; Day 15; fasted; read-out: Tmax
Procedure: In a dose-ranging study, the pharmacokinetics (PK), safety and tolerability of RX-5902 at various oral doses were evaluated. […] Plasma concentrations were measured on Days 1 and 15, for 48 hrs, using a validated LC-MS/MS assay, and noncompartmental pharmacokinetic parameters were calculated using Phoenix WinNonlin, Version 6.4. […]
ENDPOINT_NAME: Tmax

Record COc1cc(OC)cc(N2CCN(C(=O)Nc3nc4cc(F)ccc4nc3OC)CC2)c1 , field Tmax: 6 h

====

experiment: Human pharmacokinetics, dose-ranging study; format: in vivo; conditions: human, plasma, po, 300 mg, oral capsule; 300 mg, 3 per week; Day 15; fasted; read-out: Tmax
ENDPOINT_NAME: Tmax (h)
// note: answer is a bare numeric in h

Record COc1cc(OC)cc(N2CCN(C(=O)Nc3nc4cc(F)ccc4nc3OC)CC2)c1 , field Tmax: 2

====

test: Solubility assessment in solvents; assay type: physicochemical; conditions: MEK, organic solvent or mixture, thermodynamic from solid; read-out: Solubility at RT
ENDPOINT_NAME: solubility at 10 min

Record COc1cc(OC)cc(N2CCN(C(=O)Nc3nc4cc(F)ccc4nc3OC)CC2)c1 [RX-5902] , field solubility at 10 min: < 100 mg/mL

====

assay: Solubility assessment in solvents; type: physicochemical; conditions: isopropanol-10% water, organic solvent or mixture, thermodynamic from solid; read-out: Solubility at RT
ENDPOINT_NAME: solubility at 10 min

Record COc1cc(OC)cc(N2CCN(C(=O)Nc3nc4cc(F)ccc4nc3OC)CC2)c1 [RX-5902] , field solubility at 10 min: < 100 mg/mL

====

Assay: Human pharmacokinetics, dose-ranging study
Assay type: in vivo
Conditions: human, plasma, po, 775 mg, oral capsule; 775 mg, 1 per week; Day 1; fasted; read-out: T1/2 (converted)
Procedure: In a dose-ranging study, the pharmacokinetics (PK), safety and tolerability of RX-5902 at various oral doses were evaluated. […] Plasma concentrations were measured on Days 1 and 15, for 48 hrs, using a validated LC-MS/MS assay, and noncompartmental pharmacokinetic parameters were calculated using Phoenix WinNonlin, Version 6.4. […]
ENDPOINT_NAME: half-life
Kindly write the number and append the unit.

Record COc1cc(OC)cc(N2CCN(C(=O)Nc3nc4cc(F)ccc4nc3OC)CC2)c1 , field half-life: 9.7 h

====

assay: Human pharmacokinetics, dose-ranging study; assay type: in vivo; details: human, plasma, po, 225 mg, oral capsule; 225 mg, 1 per week; Day 1; fasted; read-out: Cmax
ENDPOINT_NAME: Cmax

Record COc1cc(OC)cc(N2CCN(C(=O)Nc3nc4cc(F)ccc4nc3OC)CC2)c1 [RX-5902] , field Cmax: 364 ng/mL

====

assay: Human pharmacokinetics, dose-ranging study; type: in vivo; details: human, plasma, po, 300 mg, oral capsule; 300 mg, 3 per week; Day 1; fasted; read-out: Tmax
ENDPOINT_NAME: Tmax (h)
// note: answer is a bare numeric in h

Record COc1cc(OC)cc(N2CCN(C(=O)Nc3nc4cc(F)ccc4nc3OC)CC2)c1 , field Tmax: 6
